B1: Caulobacter ParB omega fusion; a variant is named by its letters at X, in order, B8GW30 (parent)
chain: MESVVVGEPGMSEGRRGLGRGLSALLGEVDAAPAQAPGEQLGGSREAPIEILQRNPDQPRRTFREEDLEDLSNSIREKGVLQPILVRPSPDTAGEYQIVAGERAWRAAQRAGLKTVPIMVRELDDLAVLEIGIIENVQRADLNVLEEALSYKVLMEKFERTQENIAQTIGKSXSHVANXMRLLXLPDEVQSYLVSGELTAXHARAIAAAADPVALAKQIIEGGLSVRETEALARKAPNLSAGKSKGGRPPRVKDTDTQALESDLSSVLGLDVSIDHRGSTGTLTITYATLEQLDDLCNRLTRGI

Variants of: B1
Experiment: one-hybrid fitness for binding NBS DNA (the Noc-binding site; scaled: cognate 1, non-cognate 0); higher = stronger binding
Details: with NBS DNA site
In all, about 81,000 sequences were measured (“one-hybrid fitness for binding NBS DNA”: median about -0.1, highest 2% from about 0.36 on). Only a selection was taken, and the highest values are over-represented in it overall.
Provide the recorded one-hybrid fitness for binding NBS DNA for the entries that follow.

// query one-hybrid fitness for binding NBS DNA value for entry GCRT
≤ 0.2

// query one-hybrid fitness for binding NBS DNA value for entry QSYT
0.347

// query one-hybrid fitness for binding NBS DNA value for entry RMST
0.483

// query one-hybrid fitness for binding NBS DNA value for entry KCTR
≤ 0.2

// query one-hybrid fitness for binding NBS DNA value for entry GDKC
≤ 0.2

// query one-hybrid fitness for binding NBS DNA value for entry RMGK
≤ 0.2

// query one-hybrid fitness for binding NBS DNA value for entry SYFG
≤ 0.2

// query one-hybrid fitness for binding NBS DNA value for entry FWRC
≤ 0.2

// query one-hybrid fitness for binding NBS DNA value for entry WFRC
≤ 0.2

// query one-hybrid fitness for binding NBS DNA value for entry DSDF
≤ 0.2

// query one-hybrid fitness for binding NBS DNA value for entry RMRT
0.633

// query one-hybrid fitness for binding NBS DNA value for entry ANIL
≤ 0.2

// query one-hybrid fitness for binding NBS DNA value for entry RSVC
≤ 0.2

// query one-hybrid fitness for binding NBS DNA value for entry QPYT
≤ 0.2

// query one-hybrid fitness for binding NBS DNA value for entry QCRT
0.857

// query one-hybrid fitness for binding NBS DNA value for entry QPRT
≤ 0.2

// query one-hybrid fitness for binding NBS DNA value for entry DRLR
≤ 0.2

// query one-hybrid fitness for binding NBS DNA value for entry NIFS
≤ 0.2

// query one-hybrid fitness for binding NBS DNA value for entry RKPC
≤ 0.2

// query one-hybrid fitness for binding NBS DNA value for entry NFAR
≤ 0.2

// query one-hybrid fitness for binding NBS DNA value for entry WRET
≤ 0.2

// query one-hybrid fitness for binding NBS DNA value for entry RMSG
≤ 0.2

// query one-hybrid fitness for binding NBS DNA value for entry RMQP
≤ 0.2

// query one-hybrid fitness for binding NBS DNA value for entry GPYT
≤ 0.2

// query one-hybrid fitness for binding NBS DNA value for entry ANSI
≤ 0.2

// query one-hybrid fitness for binding NBS DNA value for entry KRTR
0.563

// query one-hybrid fitness for binding NBS DNA value for entry KRNR
0.661

// query one-hybrid fitness for binding NBS DNA value for entry RMGF
≤ 0.2

// query one-hybrid fitness for binding NBS DNA value for entry RMSK
≤ 0.2

// query one-hybrid fitness for binding NBS DNA value for entry RYAS
0.342

// query one-hybrid fitness for binding NBS DNA value for entry RMVC
≤ 0.2

// query one-hybrid fitness for binding NBS DNA value for entry GRRW
≤ 0.2

// query one-hybrid fitness for binding NBS DNA value for entry IYDC
≤ 0.2

// query one-hybrid fitness for binding NBS DNA value for entry KCSR
≤ 0.2

// query one-hybrid fitness for binding NBS DNA value for entry KRLR
0.456

// query one-hybrid fitness for binding NBS DNA value for entry RPKC
≤ 0.2

// query one-hybrid fitness for binding NBS DNA value for entry EWRC
≤ 0.2

// query one-hybrid fitness for binding NBS DNA value for entry QSRT
0.723

// query one-hybrid fitness for binding NBS DNA value for entry KRER
0.368

Source listed as a collection of fitness landscapes (doi:10.1016/j.celrep.2020.107928).
